From: patent USRE46511E1

Test system: HCC827 (EGFR DelE746_A750)
experiment_notes: Inhibition test for growth of cancer cell expressing EGFR (SRB), HCC827
Format: cell-based
condition_info: Homo sapiens, HCC827, 72 h, HCC827 cells, 72 hours, SRB; read-out: GI50 HCC827 EGFR DelE746_A750
observed_property: GI50

C=CC(=O)Nc1cccc(Oc2nc(Nc3ccc(CN4CCN(C5CCN(C)CC5)CC4)c(Cl)c3)nc3ccsc23)c1 :: 0.05 to 0.1 µM

Each of the following entries comes with a recorded value; kindly state GI50 for each.
1. C=CC(=O)Nc1cccc(Oc2nc(Nc3ccc(N4CC(C)N(C)C(C)C4)cc3)nc3ccsc23)c1 (stereo not shown)
2. C=CC(=O)Nc1cccc(Oc2nc(Nc3ccc(OCCN4CCN(C)CC4)c(F)c3)nc3ccsc23)c1
3. C=CC(=O)Nc1cccc(Oc2nc(Nc3ccc(CC(=O)NC4CCN(C)CC4)cc3)nc3ccsc23)c1
4. C=CC(=O)Nc1cccc(Nc2nc(Nc3ccc(CN4CCCCC4)cc3)nc3ccsc23)c1
5. C=CC(=O)Nc1cccc(Oc2nc(Nc3ccc(S(=O)(=O)NC4CC4)cc3)nc3ccsc23)c1

Result:
["< 0.05 µM", "< 0.05 µM", "0.1 to 1 µM", "< 0.05 µM", "0.05 to 0.1 µM"]

====

subject_of_test: JAK3 (Homo sapiens)
Sequence (P52333 1-1124): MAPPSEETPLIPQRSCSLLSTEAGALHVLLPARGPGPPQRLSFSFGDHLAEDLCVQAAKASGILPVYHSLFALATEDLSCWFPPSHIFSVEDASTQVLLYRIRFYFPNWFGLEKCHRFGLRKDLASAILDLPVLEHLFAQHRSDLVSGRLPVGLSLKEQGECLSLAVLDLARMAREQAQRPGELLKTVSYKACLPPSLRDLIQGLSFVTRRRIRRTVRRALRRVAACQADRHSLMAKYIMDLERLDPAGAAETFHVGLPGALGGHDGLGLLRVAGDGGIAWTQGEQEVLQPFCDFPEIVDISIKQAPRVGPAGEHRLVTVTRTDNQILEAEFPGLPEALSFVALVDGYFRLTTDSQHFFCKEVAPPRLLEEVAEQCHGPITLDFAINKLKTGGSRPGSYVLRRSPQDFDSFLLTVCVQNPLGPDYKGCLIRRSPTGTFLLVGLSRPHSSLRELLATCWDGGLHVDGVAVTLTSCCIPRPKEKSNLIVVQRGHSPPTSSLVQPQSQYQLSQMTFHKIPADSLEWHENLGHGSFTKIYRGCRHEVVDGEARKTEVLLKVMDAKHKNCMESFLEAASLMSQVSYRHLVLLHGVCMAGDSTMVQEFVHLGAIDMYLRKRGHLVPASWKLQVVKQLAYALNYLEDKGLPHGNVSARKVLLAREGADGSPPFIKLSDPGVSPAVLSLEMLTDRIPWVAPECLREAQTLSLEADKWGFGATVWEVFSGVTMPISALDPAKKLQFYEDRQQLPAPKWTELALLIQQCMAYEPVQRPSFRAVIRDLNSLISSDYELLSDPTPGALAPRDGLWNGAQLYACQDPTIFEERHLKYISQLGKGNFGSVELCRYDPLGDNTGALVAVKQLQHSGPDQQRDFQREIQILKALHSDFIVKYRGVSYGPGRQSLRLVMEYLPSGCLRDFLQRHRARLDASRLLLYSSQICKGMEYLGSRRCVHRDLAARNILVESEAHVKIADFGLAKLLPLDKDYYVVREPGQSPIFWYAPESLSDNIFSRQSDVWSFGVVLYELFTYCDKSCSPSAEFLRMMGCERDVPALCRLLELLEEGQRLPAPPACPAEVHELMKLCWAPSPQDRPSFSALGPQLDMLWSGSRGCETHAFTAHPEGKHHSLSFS
Please provide measured IC50 for the entries that follow.

C=CC(=O)Nc1cccc(Oc2nc(Nc3ccc(OCCN(C)C)cc3)nc3ccsc23)c1 [Example 62] :: ≤ 50 nM

Each of the following entries comes with a recorded value; kindly state IC50 for each.
1. C=CC(=O)Nc1cccc(Oc2nc(Nc3ccc(C4=NCCCN4)cc3)nc3ccsc23)c1 [Example 104]
2. C=CC(=O)Nc1cccc(Oc2nc(Nc3ccc(N4CCC(C(=O)O)CC4)cc3)nc3ccsc23)c1 [Example 44]
3. C=CC(=O)Nc1cccc(Oc2nc(Nc3ccc(C(=O)N4CCN(C)CC4)cc3)nc3ccsc23)c1 [Example 89]

Result:
1. ≤ 50 nM
2. 50 to 100 nM
3. 50 to 100 nM

====

Please provide measured GI50 for the entries that follow.
Tested on: NCI-H1975 (EGFR L858R/T790M)
experiment_notes: Inhibition test for growth of cancer cell expressing EGFR (MTS), NCI-H1975
Type: cell-based
condition_info: Homo sapiens; NCI-H1975 cells, 48 hours, MTS; read-out: GI50 NCI-H1975 EGFR L858R/T790M

Some compounds with known GI50 results, for comparison:
C=CC(=O)Nc1cccc(Nc2nc(Nc3ccc(OCCN(C)C)cc3)nc3ccsc23)c1 [Example 211] :: < 50 nM
C=CC(=O)Nc1cccc(Oc2nc(Nc3ccc(C(=O)NC4CCN(C)CC4)c(Cl)c3)nc3ccsc23)c1 [Example 142] :: < 50 nM
C=CC(=O)Nc1cccc(Oc2nc(Nc3ccc(C(=O)NC4CCN(C)CC4)c(OC)c3)nc3ccsc23)c1 [Example 118] :: 50 to 100 nM
C=CC(=O)Nc1cccc(Oc2nc(Nc3ccc(N4CCN(CCO)CC4)cn3)nc3ccsc23)c1 [Example 156] :: 50 to 100 nM

Each of the following entries comes with a recorded value; kindly state GI50 for each.
1. C=CC(=O)Nc1cccc(Oc2nc(Nc3ccc(C(=O)NCCN(C)C)cc3)nc3ccsc23)c1 [Example 79]
2. C=CC(=O)Nc1cccc(Oc2nc(Nc3ccc(N4CCN(CC(F)F)CC4)cc3)nc3ccsc23)c1 [Example 15]
3. C=CC(=O)Nc1cccc(Oc2nc(Nc3ccc(N4CCOCC4)cc3)nc3ccsc23)c1 [Example 29]

Result:
100 to 1000 nM
< 50 nM
< 50 nM

Q: GET /values?readout=GI50&item= C=CC(=O)Nc1cccc(Oc2nc(Nc3ccc(CN4CCOCC4)cc3)nc3ccsc23)c1 [Example 187]
Result: < 50 nM

====

subject_of_test: BTK (Homo sapiens)
Sequence (Q06187 whole entry): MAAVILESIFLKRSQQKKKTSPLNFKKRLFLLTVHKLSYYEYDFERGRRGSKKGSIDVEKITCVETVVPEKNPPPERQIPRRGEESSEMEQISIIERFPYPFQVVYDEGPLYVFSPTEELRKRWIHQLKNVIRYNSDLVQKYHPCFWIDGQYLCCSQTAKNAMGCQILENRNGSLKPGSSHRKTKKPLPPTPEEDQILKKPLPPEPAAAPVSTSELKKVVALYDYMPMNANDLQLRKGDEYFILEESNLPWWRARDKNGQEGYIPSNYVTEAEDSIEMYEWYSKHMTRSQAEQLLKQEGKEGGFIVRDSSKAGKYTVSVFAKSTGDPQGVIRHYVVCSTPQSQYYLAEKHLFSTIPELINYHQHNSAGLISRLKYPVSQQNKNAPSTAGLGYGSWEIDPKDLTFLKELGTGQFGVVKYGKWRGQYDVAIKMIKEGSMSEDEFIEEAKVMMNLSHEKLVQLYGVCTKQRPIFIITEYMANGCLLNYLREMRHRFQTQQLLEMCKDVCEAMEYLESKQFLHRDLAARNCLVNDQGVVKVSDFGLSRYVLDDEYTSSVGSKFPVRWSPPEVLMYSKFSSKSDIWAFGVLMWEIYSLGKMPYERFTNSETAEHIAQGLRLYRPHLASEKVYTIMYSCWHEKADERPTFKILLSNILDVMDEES
observed_property: IC50

Some molecules with known IC50 results, for comparison:
C=CC(=O)Nc1cccc(Oc2nc(Nc3ccc(S(=O)(=O)NCCN(C)C)cc3)nc3ccsc23)c1 [Example 72] :: ≤ 50 nM
C=CC(=O)Nc1cccc(Oc2nc(Nc3ccc(NCCN(C)C)c(F)c3)nc3ccsc23)c1 [Example 199] :: ≤ 50 nM

Each of the following entries comes with a recorded value; kindly state IC50 for each.
1. C=CC(=O)Nc1cccc(Oc2nc(Nc3ccc(C(=O)NC4CCN(C)CC4)c(C)c3)nc3ccsc23)c1 [Example 145]
2. C=CC(=O)Nc1cccc(Oc2nc(Nc3ccc(S(N)(=O)=O)cc3)nc3ccsc23)c1 [Example 70]
3. C=CC(=O)Nc1cccc(Oc2nc(Nc3ccc(CN(C)C)cc3)nc3ccsc23)c1 [Example 173]
4. C=CC(=O)Nc1cccc(Oc2nc(Nc3ccc(CN4CCN(C)CC4)nc3)nc3ccsc23)c1 [Example 169]

Result:
1: ≤ 50 nM; 2: ≤ 50 nM; 3: ≤ 50 nM; 4: ≤ 50 nM

Each of the following entries comes with a recorded value; kindly state IC50 for each.
1. C=CC(=O)Nc1cccc(Oc2nc(Nc3ccc(P(=O)(OCC)OCC)cc3)nc3ccsc23)c1 [Example 67]
2. C=CC(=O)Nc1cccc(Oc2nc(Nc3ccc(CCN4CCN(CC)CC4)cc3)nc3ccsc23)c1 [Example 99]

Result:
["≤ 50 nM", "≤ 50 nM"]

====

Tested on: HCC827 (EGFR DelE746_A750)
experiment_notes: Inhibition test for growth of cancer cell expressing EGFR (SRB), HCC827;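 note: cells in 96-well plates exposed to tenfold serial dilutions from 100 µM, fixed with trichloroacetic acid, SRB-stained, absorbance read at 540 nm, DMSO under 1%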
Format: cell-based
condition_info: Homo sapiens, HCC827, 72 h, HCC827 cells, 72 hours, SRB; read-out: GI50 HCC827 EGFR DelE746_A750
observed_property: GI50

Some molecules with known GI50 results, for comparison:
C=CC(=O)Nc1cccc(Nc2nc(Nc3ccc(C4CCN(C)CC4)c(F)c3)nc3ccsc23)c1 [Example 216] :: < 50 nM
C=CC(=O)Nc1cccc(Oc2nc(Nc3ccc(N4CCNCC4)cc3)nc3ccsc23)c1 [Example 158] :: < 50 nM

Each of the following entries comes with a recorded value; kindly state GI50 for each.
1. C=CC(=O)Nc1cccc(Oc2nc(Nc3ccc(N4CCN(C(C)C)CC4)cc3)nc3ccsc23)c1 [Example 11]
2. C=CC(=O)Nc1cccc(Oc2nc(Nc3ccc(N4CCN(S(=O)(=O)CC)CC4)c(F)c3)nc3ccsc23)c1 [Example 121]
3. C=CC(=O)Nc1cccc(Oc2nc(Nc3ccc(N4CC[S+]([O-])CC4)cc3)nc3ccsc23)c1 [Example 31]

Result:
1. < 50 nM
2. 50 to 100 nM
3. < 50 nM

Each of the following entries comes with a recorded value; kindly state GI50 for each.
1. C=CC(=O)Nc1cccc(Oc2nc(Nc3ccc(N4CCN(C)CC4)cc3OC)nc3ccsc23)c1 [Example 2]
2. C=CC(=O)Nc1cccc(Nc2nc(Nc3ccc(N4CCN(C)CC4)c(F)c3)nc3ccsc23)c1 [Example 215]
3. C=CC(=O)Nc1cccc(Oc2nc(Nc3ccc(CCN4CCCCC4)cc3)nc3ccsc23)c1 [Example 98]
4. C=CC(=O)Nc1cccc(Oc2nc(Nc3ccc(C(=O)NCCN4CCCC4)cc3OC)nc3ccsc23)c1 [Example 117]
5. C=CC(=O)Nc1cccc(Oc2nc(Nc3ccc(CN4CCN(C)CC4)nc3)nc3ccsc23)c1 [Example 169]
6. C=CC(=O)Nc1cccc(Nc2nc(Nc3ccc(CCN4CCN(C)CC4)cc3)nc3ccsc23)c1 [Example 214]
7. C=CC(=O)Nc1cccc(Oc2nc(Nc3ccc(NC4CCN(C)CC4)cc3)nc3ccsc23)c1 [Example 59]

Result:
["50 to 100 nM", "< 50 nM", "< 50 nM", "< 50 nM", "< 50 nM", "50 to 100 nM", "< 50 nM"]

Each of the following entries comes with a recorded value; kindly state GI50 for each.
1. C=CC(=O)Nc1cccc(Oc2nc(Nc3ccc(NCCN(C)C)cc3)nc3ccsc23)c1 [Example 57]
2. C=CC(=O)Nc1cccc(Oc2nc(Nc3ccc(N4CCN(C)CC4)cc3F)nc3ccsc23)c1 [Example 4]
3. C=CC(=O)Nc1cccc(Oc2nc(Nc3ccc(C4CCN(CC)CC4)cc3)nc3ccsc23)c1 [Example 53]
4. C=CC(=O)Nc1cccc(Oc2nc(Nc3ccc(N4CCC(N5CCCCC5)CC4)cc3)nc3ccsc23)c1 [Example 48]

Result:
1: < 50 nM; 2: 50 to 100 nM; 3: < 50 nM; 4: < 50 nM
